These measurements were taken from patent US9896445B2.

- studyTarget: ERK2 (Homo sapiens, UniProt P28482)
- Construct: purchased Jubilant Biosys
- Sequence (P28482 whole entry): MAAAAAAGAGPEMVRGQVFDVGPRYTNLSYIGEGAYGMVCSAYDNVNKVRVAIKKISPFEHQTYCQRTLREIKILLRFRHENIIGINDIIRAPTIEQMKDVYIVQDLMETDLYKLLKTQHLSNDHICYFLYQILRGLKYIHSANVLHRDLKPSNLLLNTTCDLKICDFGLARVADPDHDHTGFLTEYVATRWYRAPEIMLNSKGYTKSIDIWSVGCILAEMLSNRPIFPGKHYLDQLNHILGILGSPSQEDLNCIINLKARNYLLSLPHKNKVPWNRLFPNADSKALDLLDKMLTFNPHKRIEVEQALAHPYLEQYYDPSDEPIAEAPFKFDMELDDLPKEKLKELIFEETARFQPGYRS
- experimentSummary: ERK2 HTRF (biochemical) assay
- assayConditions: HTRF
This listing pairs compounds with measured IC50.

As a guide, the following entries are already answered.
compound: O=C(NC(CO)c1ccccc1)c1ccn(-c2ccnc(Nc3ccc(F)cc3)c2)c1 (centres unmarked) [Compound 84]
IC50: ≤ 50 nM
--
compound: C#Cc1cccc(Nc2nccc(-n3cc(NC(=O)N[C@H](CO)c4cccc(Cl)c4)cn3)n2)c1 [Compound 38]
IC50: ≤ 50 nM
--
compound: Cc1cnc(Nc2ccc(F)cc2Cl)cc1-n1ccc(C(=O)NC(CO)c2cccc(Cl)c2)c1 (centres unmarked) [Compound 91]
IC50: ≤ 50 nM
--
compound: Cc1cnc(Nc2ccccc2Cl)nc1-n1cc(NC(=O)NC(CO)c2cccc(Cl)c2)cn1 (centres unmarked) [Compound 43]
IC50: > 2500 nM
--
compound: O=C(NCc1cccc(Cl)c1)Nc1cnn(-c2ccnc(Nc3ccccc3Cl)n2)c1 [Compound 9]
IC50: > 2500 nM

For Cc1cnc(N[C@H]2CCOC2)nc1-n1cnc(C(=O)N[C@H](CN)c2cccc(Cl)c2)c1 [Example 255] , write its IC50.
≤ 50 nM

Report IC50, nothing else, for this compound: NCC(NC(=O)c1ccn(-c2ccnc(Nc3ccc(F)cc3)c2)c1)c1ccccc1 (centres unmarked) [Compound 206]
≤ 50 nM

Please give measured IC50 of the following entry: Cc1cnc(Nc2ccc(F)cc2)nc1-n1cnc(C(=O)NCc2cccc(Cl)c2CO)c1 [Example 262]
≤ 50 nM

Tell us which IC50 value is on record for O=C(NC(CO)c1cccc(Cl)c1)c1cn(-c2ccnc(Nc3ccc4c(c3)CCO4)c2)cn1 (centres unmarked) [Compound 163]
≤ 50 nM

Tell me measured IC50 for Cc1cnc(Nc2ccc3[nH]ncc3c2)nc1-n1ccc(C(=O)NC(CO)c2ccccc2)c1 (centres unmarked) [Compound 140] please.
≤ 50 nM

# return recorded IC50 for input O=C(NC(CO)c1ccccc1)c1ccn(-c2ccnc(Nc3ccc(F)cc3Cl)c2)c1 (centres unmarked) [Compound 82]
≤ 50 nM

Read the entry Cc1cnc(NC2CCOCC2)nc1-n1ccc(C(=O)NC(CO)c2ccccc2)c1 (centres unmarked) [Compound 120] and write its reported IC50.
100 to 500 nM

Kindly indicate its recorded IC50. Item: NCC(Cc1ccccc1)NC(=O)c1ccn(-c2ccnc(Nc3ccc(F)cc3)c2)c1 (centres unmarked) [Compound 119]
100 to 500 nM

Return the recorded IC50 value; entry: Cc1cnc(NC2CCOCC2)nc1-n1cnc(C(=O)N[C@H](CO)c2cccc(Cl)c2)c1 [Compound 211]
≤ 50 nM

Respond only with IC50 recorded for Cc1cnc(NC2CCOCC2)nc1-n1cnc(C(=O)NC(CO)c2cccc(Cl)c2)c1 (centres unmarked) [Compound 201]
≤ 50 nM

Report IC50, nothing else, for this compound: Cc1cnc(NC2CCOC2)nc1-n1ccc(C(=O)NC(CO)c2ccccc2)c1 (centres unmarked) [Compound 128]
≤ 50 nM

Output measured IC50 for this item: Cc1cnc(Nc2ccc3c(c2)OCCC3)nc1-n1ccc(C(=O)NC(CO)c2ccccc2)c1 (centres unmarked) [Compound 186]
≤ 50 nM

Quote IC50 reported for Cc1cnc(Nc2ccc3c(c2)OCO3)nc1-n1ccc(C(=O)N[C@H](CO)Cc2ccccc2)c1 [Compound 59] please.
≤ 50 nM

Supply measured IC50 of CC[C@@H](CO)Nc1ncc(C)c(-n2ccc(C(=O)N[C@H](CO)c3ccc(F)c(Cl)c3)c2)n1 [Compound 133] in your reply.
≤ 50 nM

Complete the entry with IC50 for CCC(COC)Nc1ncc(C)c(-n2ccc(C(=O)NC(CO)c3cccc(Cl)c3)c2)n1 (centres unmarked) [Compound 127]
≤ 50 nM

Name the recorded IC50 of the compound listed here: Cc1cnc(Nc2ccc(F)cc2)cc1-n1ccc(C(=O)NC(CN)c2ccc(F)c(Cl)c2)c1 (centres unmarked) [Compound 164]
≤ 50 nM

Return the recorded IC50 value; entry: Cc1cnc(Nc2ccc(F)cc2Cl)nc1-n1cc(C(=O)NC(CO)c2cccc(Cl)c2)cn1 (centres unmarked) [Compound 45]
≤ 50 nM

Supply measured IC50 of Cc1cnc(Nc2ccc(F)cc2Cl)nc1-n1cnc(C(=O)NC(CN)c2cccc(Cl)c2)c1 (centres unmarked) [Compound 232] in your reply.
≤ 50 nM

Kindly indicate its recorded IC50. Item: Cc1cnc(NC2CCOCC2)nc1-n1cnc(C(=O)N[C@@H](CN)c2cc(F)cc(Cl)c2)c1 [Example 276]
≤ 50 nM

Please supply the value of reported IC50 for the item Cc1cnc(NC2CC(F)(F)C2)nc1-n1cnc(C(=O)N[C@H](CN)c2cc(F)cc(Cl)c2)c1 [Example 288]
≤ 50 nM
